IC50 values recorded for UniProtKB P51812
Sequence (P51812 whole entry): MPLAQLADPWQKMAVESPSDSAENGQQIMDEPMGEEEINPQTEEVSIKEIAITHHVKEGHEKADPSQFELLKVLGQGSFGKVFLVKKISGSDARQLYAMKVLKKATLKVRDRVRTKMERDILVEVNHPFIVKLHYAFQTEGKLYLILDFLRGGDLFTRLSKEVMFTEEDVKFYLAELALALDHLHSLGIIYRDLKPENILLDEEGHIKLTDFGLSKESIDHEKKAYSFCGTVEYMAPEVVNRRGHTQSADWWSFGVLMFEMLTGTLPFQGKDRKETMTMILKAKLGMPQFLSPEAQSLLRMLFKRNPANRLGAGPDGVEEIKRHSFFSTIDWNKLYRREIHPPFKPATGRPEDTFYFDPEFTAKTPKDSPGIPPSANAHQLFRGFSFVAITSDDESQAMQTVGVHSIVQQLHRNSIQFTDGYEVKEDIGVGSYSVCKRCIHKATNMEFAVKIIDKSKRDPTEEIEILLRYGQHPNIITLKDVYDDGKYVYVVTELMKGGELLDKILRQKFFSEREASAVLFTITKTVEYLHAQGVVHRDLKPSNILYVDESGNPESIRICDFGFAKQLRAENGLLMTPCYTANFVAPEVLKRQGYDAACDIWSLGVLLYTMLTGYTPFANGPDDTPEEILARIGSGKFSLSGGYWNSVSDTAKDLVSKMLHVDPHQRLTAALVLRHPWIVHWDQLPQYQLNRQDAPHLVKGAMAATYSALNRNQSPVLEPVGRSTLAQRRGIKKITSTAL

CCOc1ccc(N2C(=O)[C@@H](C)N(C3CCOCC3)c3nc(Nc4ccc5[nH]c(=O)oc5c4)ncc32)cc1C#N = ≤ 100 nM
C[C@@H]1C(=O)N(c2ccc(C(F)(F)F)cc2)c2cnc(Nc3ccc4[nH]ncc4c3)nc2N1C1CCCCC1 = ≤ 100 nM
C[C@@H]1C(=O)N(c2cccc(C#N)c2)c2cnc(Nc3ccc4[nH]ncc4c3)nc2N1CC1CC(F)(F)C1 = ≤ 100 nM

Q: // output IC50; input "C[C@@H]1C(=O)N(c2cccc(C#N)c2)c2cnc(Nc3ccc(C(=O)O)cc3)nc2N1C1CCCCC1" ; system UniProtKB P51812
Result: ≤ 100 nM

Q: Report value only: IC50, UniProtKB P51812, "COc1ccc(N2C(=O)[C@@H](C)N(C3CCOCC3)c3nc(Nc4ccc5[nH]c(=O)oc5c4)ncc32)cc1C#N"
Result: ≤ 100 nM

Q: State IC50 (UniProtKB P51812) of CC(C)N1c2nc(Nc3ccc4c(c3)CC(=O)N4)ncc2N(c2ccccc2)C(=O)C1C (stereo not shown) .
Result: 100 to 1000 nM

Q: Given "CCOc1ccc(N2C(=O)[C@@H](C)N([C@H]3CC[C@H](C)CC3)c3nc(Nc4ccc5[nH]c(=O)oc5c4)ncc32)cc1C#N" , report its IC50 on UniProtKB P51812.
Result: ≤ 100 nM
